The measured values listed here are drawn from patent US20240108746A1.

Reported koff is given for each of the following binders.
Target: T1, Biotinylated CD3-specific binding domain SEQ ID NO: 13 (biotinylated (site not stated))
T1 construct: Ligand on the neutravidin (NLC) SPR chip; The same domain is the CD3-specific domain of TCE #1
T1 chain: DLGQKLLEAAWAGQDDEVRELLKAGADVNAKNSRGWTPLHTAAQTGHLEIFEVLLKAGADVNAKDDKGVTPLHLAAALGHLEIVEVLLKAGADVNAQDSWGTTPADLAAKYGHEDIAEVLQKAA
Test: SPR (ProteOn XPR36), 33 C, multi-trace; biotinylated ligand on chip, binder as analyte
READOUT KIND: koff

• Binder #5 (designed binder) MRGSHHHHHHGSDLGKKLLQAARAGQLDEVRELLKAGADVNAKDHYGWTPLHIAAQIGHLEIVEVLLKAGADVNAKDWIGYTPLHLAASHGHLEIVEVLLKAGADVNAKDVSGKTPLHVAAAHGHLEIVEVLLKAGADVNAQDKSGKTPADLAARAGHQDIAEVLQKAA = < 5e-05 s⁻¹
• Binder #8 (designed binder) MRGSHHHHHHGSDLGKKLLQAARAGQLDEVRELLKAGADVNAKDHYGWTPLHIAAQRGHLEIVEVLLKAGADVNAKDWLGWTPLHVAASHGHLEIVEVLLKAGADVNAKDLSGRTPLHIAARQGHLEIVEVLLKAGADVNAQDKSGKTPADLAARAGHQDIAEVLQKAA = < 5e-05 s⁻¹
